Documented MFI across a set of binders
- Test System: T1, human IL-23 (IL-23-His-Biotin) (human, UniProt Q9NPF7 20-189; P29460 23-328, biotin label, site not stated)
- T1 construct: Akesobio lot 20161209; His-tagged and biotinylated
- T1 sequence (looked up) 1: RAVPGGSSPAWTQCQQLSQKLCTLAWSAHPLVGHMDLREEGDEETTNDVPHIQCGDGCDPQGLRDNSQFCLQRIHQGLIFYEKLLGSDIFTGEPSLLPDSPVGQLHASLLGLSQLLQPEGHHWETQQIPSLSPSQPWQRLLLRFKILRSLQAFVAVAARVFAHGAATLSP
- T1 sequence (looked up) 2: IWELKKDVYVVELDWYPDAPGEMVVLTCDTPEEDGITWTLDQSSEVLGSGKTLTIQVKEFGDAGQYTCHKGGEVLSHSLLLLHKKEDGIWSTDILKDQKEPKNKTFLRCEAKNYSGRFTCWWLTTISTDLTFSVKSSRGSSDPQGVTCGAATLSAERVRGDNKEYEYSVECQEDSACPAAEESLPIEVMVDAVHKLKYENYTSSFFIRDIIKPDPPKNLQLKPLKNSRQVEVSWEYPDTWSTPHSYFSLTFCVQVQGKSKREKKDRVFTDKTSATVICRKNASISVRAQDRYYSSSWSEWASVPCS
- Assay Explanation: FACS competition, IL-23-His-Biotin 2 µg/mL on 293T-IL-12Rβ1&IL-23R cells; antibody 1.11 µg/mL
Respond with the bare value in MFI.

Worked cases, answers included:
Per the records, this binder ( ustekinumab (antibody, V domains shown) VH: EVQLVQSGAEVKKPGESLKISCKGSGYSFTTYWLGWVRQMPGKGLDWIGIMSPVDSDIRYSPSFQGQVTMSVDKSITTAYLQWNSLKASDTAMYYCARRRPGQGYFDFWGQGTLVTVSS VL: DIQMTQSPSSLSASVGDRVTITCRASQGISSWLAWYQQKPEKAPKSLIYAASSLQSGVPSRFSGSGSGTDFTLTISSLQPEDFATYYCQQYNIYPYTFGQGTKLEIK ) has MFI equal to 121

// sample H5L14 (antibody, human IgG1, kappa, V domains shown, human IgG1 / kappa constant regions; also called humanized antibody H5L14) VH: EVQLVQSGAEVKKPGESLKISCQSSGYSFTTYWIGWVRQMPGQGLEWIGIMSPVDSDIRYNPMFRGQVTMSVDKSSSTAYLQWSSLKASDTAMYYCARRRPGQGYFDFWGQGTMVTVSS VL: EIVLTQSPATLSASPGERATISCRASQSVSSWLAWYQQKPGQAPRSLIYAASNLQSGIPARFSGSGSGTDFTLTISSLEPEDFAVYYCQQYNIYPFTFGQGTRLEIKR , its MFI was 95.6

New cases:
The binder identified as H5L12 (antibody, human IgG1, kappa, V domains shown, human IgG1 / kappa constant regions; also called humanized antibody H5L12) VH: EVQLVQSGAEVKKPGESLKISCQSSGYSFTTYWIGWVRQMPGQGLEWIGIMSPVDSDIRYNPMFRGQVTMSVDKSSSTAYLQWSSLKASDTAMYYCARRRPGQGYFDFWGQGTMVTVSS VL: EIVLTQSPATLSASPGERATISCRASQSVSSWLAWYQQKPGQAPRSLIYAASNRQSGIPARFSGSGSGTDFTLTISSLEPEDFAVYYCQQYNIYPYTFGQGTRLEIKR registered its MFI at 88.5
